The measured values listed here are drawn from ChEMBL document CHEMBL1795275.

- Organism: Rattus norvegicus
- assay.info: Positive allosteric modulation of AMPA receptor in rat hippocampal slices assessed as increase of fEPSP-induced current amplitude at 30 uM
- Assay type: tissue-based
- condition.info: Hippocampus

[
  {
    "compound": "O=C1c2cc3c(cc2OCN1CCc1ccccc1)C(=O)N1CCCC1O3 (stereo unspecified)",
    "Activity": "19%"
  },
  {
    "compound": "O=C1c2cc3c(cc2OCN1CCc1ccc(F)cc1)C(=O)N1CCCC1O3 (stereo unspecified)",
    "Activity": "6%"
  },
  {
    "compound": "O=C1c2cc3c(cc2OCN1CCc1ccccn1)C(=O)N1CCCC1O3 (stereo unspecified)",
    "Activity": "15%"
  },
  {
    "compound": "O=C1c2cc3c(cc2OCN1CCc1cccc(C(F)(F)F)c1)C(=O)N1CCCC1O3 (stereo unspecified)",
    "Activity": "1%"
  },
  {
    "compound": "NC(=O)CCN1COc2cc3c(cc2C1=O)OC1CCCN1C3=O (stereo unspecified)",
    "Activity": "6%"
  },
  {
    "compound": "O=C1c2cc3c(cc2OCN1CCc1cccc(Cl)c1)C(=O)N1CCCC1O3 (stereo unspecified)",
    "Activity": "7%"
  }
]
